The reported measurements were obtained from patent US5639881A.

# Experiment Description: physchem
# Type: physicochemical
# Conditions Used: anion formation near neutrality; read-out: pKa (conversion to an anion)
Readout Type: pKa

Molecule	Reported
O=C1c2nc(CBr)[nH]c(=O)c2C(=O)c2nc(CBr)[nH]c(=O)c21 [compound 19]	6.5

###

# Experiment Description: physchem
# Type: physicochemical
# Conditions Used: aqueous buffer; from computer-fit of pH-rate profile of hydrolysis; read-out: kinetic pKa value
Readout Type: pKa

Compound	Reported
Cc1nc2c(O)c3c(=O)[nH]c(CCl)nc3c(O)c2c(=O)[nH]1 [compound 28]	8.3
